# EXPERIMENTAL_PROTOCOL: The drug is tested on Blautia hansenii strain: DSM20583 for biotransformation. The drug concentrations were measured before and after a 12-h incubation by liquid-chromatography-coupled mass spectrometry (LC–MS)
# RUN_CONDITIONS: 2 µM
MEASURED_ATTRIBUTE: Bacterial Biotransformation

# annotated cases, reported Bacterial Biotransformation shown
>  <COMPOUND>
CCOC(=O)C1=C[C@]2(CC)CCCN3CCc4c(n1c1ccccc41)[C@@H]32

>  <Bacterial Biotransformation>
Compound metabolized

$$$$
>  <COMPOUND>
CCC1(c2ccc(N)cc2)CCC(=O)NC1=O (configuration not stated) [AMINOGLUTETHIMIDE]

>  <Bacterial Biotransformation>
Compound NOT metabolized

$$$$
>  <COMPOUND>
CC(C)(C)NC[C@H](O)COc1nsnc1N1CCOCC1.O=C(O)/C=C\C(=O)O [TIMOLOL MALEATE]

>  <Bacterial Biotransformation>
Compound NOT metabolized

$$$$
>  <COMPOUND>
COC1=C(OC)C(=O)C(CCCCCCCCCCO)=C(C)C1=O

>  <Bacterial Biotransformation>
Compound NOT metabolized

$$$$
>  <COMPOUND>
CCc1nc(N)nc(N)c1-c1ccc(Cl)cc1

>  <Bacterial Biotransformation>
Compound NOT metabolized

$$$$
>  <COMPOUND>
Nc1ccc(/N=N/c2ccccc2)c(N)n1

>  <Bacterial Biotransformation>
Compound metabolized

$$$$
>  <COMPOUND>
COc1cc2nc(N3CCN(C(=O)C4CCCO4)CC3)nc(N)c2cc1OC (configuration not stated)

>  <Bacterial Biotransformation>
Compound NOT metabolized

$$$$
>  <COMPOUND>
NC12CC3CC(CC(C3)C1)C2

>  <Bacterial Biotransformation>
Compound NOT metabolized

$$$$
>  <COMPOUND>
CN1CCN2c3ccccc3Cc3ccccc3C2C1 (configuration not stated)

>  <Bacterial Biotransformation>
Compound NOT metabolized

$$$$
>  <COMPOUND>
CN1[C@@H]2CC[C@H]1C[C@@H](OC(=O)C(CO)c1ccccc1)C2 (some centres not stated)

>  <Bacterial Biotransformation>
Compound NOT metabolized

$$$$

// batch mode: one Bacterial Biotransformation value per listed entry
1. CC(C)(C(=O)O)c1ccc(C(O)CCCN2CCC(C(O)(c3ccccc3)c3ccccc3)CC2)cc1 (configuration not stated) [FEXOFENADINE]
2. COc1ccc2cc([C@H](C)C(=O)O)ccc2c1

["Compound NOT metabolized", "Compound NOT metabolized"]

----------
# RUN_CONDITIONS: bacteroides fragilis, 12 h, 2 µM
MEASURED_ATTRIBUTE: Bacterial Biotransformation

# annotated cases, reported Bacterial Biotransformation shown
>  <COMPOUND>
Cc1ccc(-c2cc(C(F)(F)F)nn2-c2ccc(S(N)(=O)=O)cc2)cc1

>  <MEASURED_ATTRIBUTE>
Bacterial Biotransformation

>  <RECORDED_MEASUREMENT>
Compound NOT metabolized

$$$$
>  <COMPOUND>
CN(CCOc1ccc(CC2SC(=O)NC2=O)cc1)c1ccccn1.O=C(O)/C=C\C(=O)O (configuration not stated) [ROSIGLITAZONE MALEATE]

>  <MEASURED_ATTRIBUTE>
Bacterial Biotransformation

>  <RECORDED_MEASUREMENT>
Compound NOT metabolized

$$$$
>  <COMPOUND>
CN(C)C(=O)Oc1cc(OC(=O)N(C)C)cc(C(O)CNC(C)(C)C)c1 (configuration not stated)

>  <MEASURED_ATTRIBUTE>
Bacterial Biotransformation

>  <RECORDED_MEASUREMENT>
Compound NOT metabolized

$$$$
>  <COMPOUND>
CC#C[C@]1(O)CC[C@H]2[C@@H]3CCC4=CC(=O)CCC4=C3[C@@H](c3ccc(N(C)C)cc3)C[C@@]21C

>  <MEASURED_ATTRIBUTE>
Bacterial Biotransformation

>  <RECORDED_MEASUREMENT>
Compound metabolized

$$$$
>  <COMPOUND>
N#Cc1ccc(C(c2ccc(C#N)cc2)n2cncn2)cc1

>  <MEASURED_ATTRIBUTE>
Bacterial Biotransformation

>  <RECORDED_MEASUREMENT>
Compound NOT metabolized

$$$$

// batch mode: one Bacterial Biotransformation value per listed entry
1. CCOC(=O)[C@H](CCc1ccccc1)N[C@H]1CCc2ccccc2N(CC(=O)O)C1=O
2. COc1ccc(CCN(C)CCCC(C#N)(c2ccc(OC)c(OC)c2)C(C)C)cc1OC (configuration not stated)
3. CC(C)(C)NC(=O)[C@H]1CC[C@H]2[C@@H]3CC[C@H]4NC(=O)C=C[C@]4(C)[C@H]3CC[C@]12C [FINASTERIDE]
4. COc1ccc2[nH]c([S+]([O-])Cc3ncc(C)c(OC)c3C)nc2c1 (configuration not stated)
5. CC(=O)OCC(CCn1cnc2cnc(N)nc21)COC(C)=O
6. COc1ccnc(C[S+]([O-])c2nc3ccc(OC(F)F)cc3[nH]2)c1OC (configuration not stated)
7. Cc1nc(Nc2ncc(C(=O)Nc3c(C)cccc3Cl)s2)cc(N2CCN(CCO)CC2)n1.O
8. COc1cc2c(c(OC)c1OC)-c1ccc(OC)c(=O)cc1[C@@H](NC(C)=O)CC2

["Compound NOT metabolized", "Compound NOT metabolized", "Compound metabolized", "Compound metabolized", "Compound metabolized", "Compound metabolized", "Compound metabolized", "Compound metabolized"]

Hello, the source for this data is ChEMBL document CHEMBL5303573, in case you need it.
